Recorded fold change in fluorescence relative to zaprinast alone by entry
# Tested on: GCaMP5-expressing T. gondii
# Construct: whole extracellular parasites expressing GCaMP5 Ca2+ sensor
# Design: species or system GCaMP5-expressing Toxoplasma gondii, extracellular; GCaMP5 fluorescence (cytosolic Ca2+) after 100 uM zaprinast in compound-pretreated extracellular parasites, background-subtracted, relative to zaprinast alone
# condition-parameters: 100 uM zaprinast stimulation; 10 min pretreatment; mean of two replicates; 0.23 h
Please give the numeric answer without any surrounding text.

// known answers, use as guide
compound="COc1cc2c(cc1Nc1nc(Nc3ccsc3C(N)=O)c3cc[nH]c3n1)N(C(=O)CN(C)C)CCC2(C)C [GSK2163632A]" quantitative_readout=1.131
compound=CNc1nccc(-c2c(-c3ccc(F)cc3)ncn2C2CCN(C)CC2)n1 quantitative_readout=0.211
compound="Cc1ccc(NC(=O)c2ccnc(N3CCCCC3)c2)cc1-c1ccc(C(=O)NCC2CC2)cc1 [GW775610X]" quantitative_readout=1.448
compound="CNC(=O)c1cncc(/C=C/c2c(C)cccc2C)c1 [GW445012X]" quantitative_readout=1.157
compound=CCn1c(-c2ccc[nH]c2=O)nc2cnccc21 quantitative_readout=0.9368
compound=O=C1NC(=O)C(c2ccccc2Cl)=C1Nc1cccc(Cl)c1 quantitative_readout=0.95

The recorded fold change in fluorescence relative to zaprinast alone for CNC(=O)Oc1cc(C)c(/C=C/c2cncc(C(=O)NC)c2)c(C)c1 [GW432441X] is 1.157

// fold change in fluorescence relative to zaprinast alone lookup, compound = Clc1ccc(-c2cc(-c3cn[nH]c3-c3ccccn3)ccn2)cc1 [GW681251X] , result: 1.448

Value of measured fold change in fluorescence relative to zaprinast alone for the entry CCc1ccc(Oc2nccc(-c3c(-c4ccc(F)cc4)ncn3C3CCNCC3)n2)cc1 : 1.455
